Could you please report measured growth for the items listed next?
Test system: SF-268 CNS
experiment: NCI-60 one-dose screen, 48 h (100 = growth as untreated, 0 = no growth, -100 = all killed)
condition: 10 µM unless noted
This is part of a sample that, as a whole, favours compounds with a hit. Of some 83,000 tested, about 20% had one in any assay.
Give just the numeric value; % need not be written.

Enter measured growth, system SF-268 CNS, for the compound shown: COc1ccc(/C=C\c2cc(OC)c(OC)c(OC)c2)cc1NC(=O)/C=C/c1ccc(OC)c(OC)c1
41.7

Enter measured growth, system SF-268 CNS, for the compound shown: CC[C@]12C=CCN3CC[C@@]4(c5ccc(OC)cc5N(C)[C@H]4[C@@](O)(C(=O)OC)[C@@H]1OC(=O)CCCC[P+](c1ccccc1)(c1ccccc1)c1ccccc1)[C@@H]32
16.2

Enter measured growth, system SF-268 CNS, for the compound shown: NC(=S)c1cn(C2OC(CO)C(O)C2O)c2ncnc(N)c12 (centres undefined)
-20.9

Enter measured growth, system SF-268 CNS, for the compound shown: CC1(C)N=C(N)N=C(N)N1c1cccc(CCCCc2ccc(Cl)c(S(=O)(=O)F)c2)c1
35.9

Enter measured growth, system SF-268 CNS, for the compound shown: NC1CC2CCCCC2CC1(O)c1ccccc1 (centres undefined)
102

Enter measured growth, system SF-268 CNS, for the compound shown: CCN1C(=O)C(=C/C=C/c2ccccc2)C(=O)N(CC)C1=O
72.5

Enter measured growth, system SF-268 CNS, for the compound shown: COC(=O)[C@@H](C)C[C@H](Cc1ccccc1)NC(=O)c1csc([C@@H](C[C@H](C(C)C)N(C)C(=O)[C@@H](NC(=O)[C@H]2CCCCN2C)C2CC2)OC(C)=O)n1
32.8

Enter measured growth, system SF-268 CNS, for the compound shown: Cn1cc(C=O)c2nccnc21
123

Enter measured growth, system SF-268 CNS, for the compound shown: CC(C)(C)C(=O)OCOP(=O)(OCOC(=O)C(C)(C)C)C1CCCN(O)C1=O (centres undefined)
4.35

Enter measured growth, system SF-268 CNS, for the compound shown: CC1(C)N=C(N)N=C(N)N1c1ccc(CCC(=O)Nc2ccc(S(=O)(=O)F)cc2)c(Cl)c1
28.1

Enter measured growth, system SF-268 CNS, for the compound shown: CCCC(C)C1(CC)C(=O)NC(=O)N(C)C1=O (centres undefined)
100

Enter measured growth, system SF-268 CNS, for the compound shown: CC(=O)Nc1ccc(NC(=O)c2ccc([As](O)O)cc2)cc1
109

Enter measured growth, system SF-268 CNS, for the compound shown: Clc1ccc(CSC(Cn2ccnc2)c2ccc(Cl)cc2Cl)cc1 (centres undefined)
50.2

Enter measured growth, system SF-268 CNS, for the compound shown: CCOC(=O)CCN(C)C1=Nc2ccc(Cl)cc2C(c2ccccc2)=[N+]([O-])C1
99.6

Enter measured growth, system SF-268 CNS, for the compound shown: ClC1=C(Cl)C(Cl)(C2(Cl)C(Cl)=C(Cl)C(Cl)=C2Cl)C(Cl)=C1Cl
-46.4

Enter measured growth, system SF-268 CNS, for the compound shown: ClCCN(CCCl)c1ccc(-n2cnc3c(Cl)ncnc32)cc1
-11.9

Enter measured growth, system SF-268 CNS, for the compound shown: COC(=O)[C@@H](C)C[C@H](Cc1ccc(F)cc1)NC(=O)c1csc([C@@H](C[C@H](C(C)C)N(C)C(=O)[C@@H](NC(=O)[C@H]2CCCCN2C)C(C)C)OC(C)=O)n1
27

Enter measured growth, system SF-268 CNS, for the compound shown: CC[C@H](C)[C@H](NC(=O)C12C3C4C1C1C2C3C41NC)C(=O)N(C)[C@H](C[C@@H](OC(C)=O)c1nc(C(=O)N[C@@H](Cc2ccccc2)C[C@H](C)C(=O)OC)cs1)C(C)C (some centres undefined)
30

Enter measured growth, system SF-268 CNS, for the compound shown: C#Cc1ccc2c(c1)C(c1ccccc1F)=NCC(=O)N2C
56.3

Enter measured growth, system SF-268 CNS, for the compound shown: CCCCCSC1C2C(=O)C(Br)=CC13CCNc1c(O)c4c5c(c13)=[N+]2CCC=5C=N4 (centres undefined)
-51.7

Enter measured growth, system SF-268 CNS, for the compound shown: O=C(N/N=C/c1ccc(N(CCCl)CCCl)cc1)c1cccc2ccccc12
77.4

Enter measured growth, system SF-268 CNS, for the compound shown: COC(=O)[C@@H](C)C[C@H](Cc1ccccc1)NC(=O)c1csc([C@@H](C[C@H](C(C)C)N(C)C(=O)C2(NC(=O)[C@H]3CCCCN3C)CC2)OC(C)=O)n1
17.5

Enter measured growth, system SF-268 CNS, for the compound shown: COC(=O)[C@@H](C)C[C@H](Cc1ccccc1)NC(=O)c1csc([C@@H](C[C@H](C(C)C)N(C)C(=O)C2(NC(=O)[C@H]3CCCCN3C)CCC2)OC(C)=O)n1
17.6

Enter measured growth, system SF-268 CNS, for the compound shown: Nc1cc2nc3ccccc3nc2cc1N
92.4

Enter measured growth, system SF-268 CNS, for the compound shown: CC(=O)Oc1ccccc1C(=O)NCCC[Se]C#N
-22.3

Enter measured growth, system SF-268 CNS, for the compound shown: COc1ccc(/C=C\c2cc(OC)c(OC)c(OC)c2)cc1OCC(=O)Nc1nc2ccc(F)cc2s1
49.2

Enter measured growth, system SF-268 CNS, for the compound shown: COC(=O)[C@]12CCC(C)(C)C[C@H]1[C@H]1C(=O)C[C@@H]3[C@@]4(C)C[C@@]5(CC(C)(C)[C@@H]4CC[C@@]3(C)[C@]1(C)CC2)OO[C@@](C)(C(F)(F)F)O5
93.1

Enter measured growth, system SF-268 CNS, for the compound shown: NC(N)=N/N=C\c1c[nH]c2ccc(Br)cc12
64.6

Enter measured growth, system SF-268 CNS, for the compound shown: COP(=O)(OC)C(O)c1ccc(Cl)cc1 (centres undefined)
94.6

Enter measured growth, system SF-268 CNS, for the compound shown: COC(=O)[C@@H](C)C[C@H](Cc1ccccc1)NC(=O)c1nc([C@@H](C[C@H](C(C)C)N(C)C(=O)[C@@H](NC(=O)[C@H]2C[C@H](O)CCN2C)C(C)C)OC(C)=O)sc1C(C)C
13.8

Enter measured growth, system SF-268 CNS, for the compound shown: c1cnc2[nH]cc(-c3csc(-c4cn(CCCCN5CCCCC5)c5ccccc45)n3)c2c1
86.1

Enter measured growth, system SF-268 CNS, for the compound shown: CC1=C(O)[C@@](C)(CCCCC[C@H](C)CCCCc2ccc(O)cc2)OOC1=O
110

Enter measured growth, system SF-268 CNS, for the compound shown: C[C@]12CCc3sc(NCCc4ccccc4)nc3C1=CC[C@@H]1[C@@H]2CC[C@]2(C)C(=O)CC[C@@H]12
83.9

Enter measured growth, system SF-268 CNS, for the compound shown: COC(=O)[C@@H](C)C[C@H](Cc1ccccc1)NC(=O)c1csc(CC[C@H](C(C)C)N(C)C(=O)[C@@H](NC(=O)[C@H]2CCCCN2C)C(C)C)n1
27
